- ASSAY: NCI Yeast Anticancer Drug Screen. Data for the cln2 rad14 strain (AID 165)
- CONDITIONS USED: S. cerevisiae cln2 rad14 strain, at 50.0 µM (retest, dose inferred, filed as 5.0)
This is part of a sample that, as a whole, favours compounds with a hit. Of some 79,000 tested, about 15% had one in any assay. Activity calls are given as the source filed them. No stated cut-off is given here; in the data, active means growth inhibition above about 70%; inactive means the rest.
Outcome codes: active, inactive

INSERT INTO assay_data (compound, assigned_category) VALUES
  ('O=[N+]([O-])c1ccc(C2=CSc3ccccc3N2)cc1', 'inactive'),
  ('N#Cc1cc2cccn2c2c1cnn2-c1ccccc1', 'inactive'),
  ('COC1CCC(O)C(CO)O1 (stereo not drawn)', 'active'),
  ('CN(C)/N=C(/CC(O)(C(F)(F)F)C(F)(F)F)c1ccc([N+](=O)[O-])cc1', 'inactive'),
  ('O=[N+]([O-])c1cc(CN(CCO)CCO)c(O)c2ncccc12', 'active'),
  ('COc1ccc2c(c1)[n+]([O-])c(-c1ccccc1)c(N)[n+]2[O-]', 'active'),
  ('O=S(=O)(O)N=Nc1ccc(O)cc1', 'active'),
  ('CCOC1(OCC)Oc2c(Cl)c(Cl)c(Cl)c(Cl)c2OC1(OCC)OCC', 'active'),
  ('COc1ccc(OC)c(C(Cc2ccnc3ccccc23)Cc2ccnc3ccccc23)c1', 'active'),
  ('CCCN(CCC)CC(O)c1cc(-c2ccccc2)nc2c(Cl)cc(Cl)cc12 (stereo not drawn)', 'active'),
  ('COc1ccc(C2C3=C(CCCC3=O)Oc3cc4c(cc32)OCO4)cc1 (stereo not drawn)', 'inactive'),
  ('CCCCCCCCCCCC1C(C#N)C(=O)NC(=O)C1C#N (stereo not drawn)', 'active'),
  ('c1ccc(N/N=C(/CC/C(=N\Nc2ccccc2)c2ccccc2)c2ccccc2)cc1', 'active'),
  ('COc1cccnc1/C=N/NC(N)=S', 'inactive'),
  ('CN(C)N=Nc1ccc(Cl)c2ncccc12', 'inactive'),
  ('O=C1CCCC/C1=C(\Br)I', 'active'),
  ('CCCCCCCCCCCCCCCCC1CCc2ccccc21 (stereo not drawn)', 'inactive'),
  ('COc1ccc(/C=c2\sc3nnc(CCC(=O)Nc4cccc(C(F)(F)F)c4)n3c2=O)cc1', 'inactive'),
  ('O=C1c2cc3c(cc2CC1Br)CCC3 (stereo not drawn)', 'active'),
  ('COc1ccc(/C=N/Nc2ccccc2)cc1', 'active'),
  ('CN(CC(=O)O)c1ncc2c(n1)-c1ccccc1OC2', 'inactive'),
  ('Cc1ccc(-c2c3c(cc4cc(C)ccc24)C(=O)OC3=O)cc1', 'inactive'),
  ('Cc1ccc(S(=O)(=O)Oc2ccc3oc4c(CO)ccc(NCCN(C)C)c4c(=O)c3c2)cc1', 'inactive'),
  ('Cc1cccc(Nc2c3c(nc4ccccc24)CCCCC3)c1', 'inactive'),
  ('c1ccc2c(c1)C[n+]1ccc3ccccc3c1-c1c3ccccc3cc[n+]1C2', 'inactive'),
  ('CCCCCCn1c(SCC)c2ccccc2c1-c1nc(F)nc(F)n1', 'inactive'),
  ('O=C(c1cccc(Cl)c1)c1ccc2ccccc2c1C(=O)O', 'inactive'),
  ('Nc1ccc(Cc2ccc(Cl)cc2)cc1', 'active'),
  ('CCOC1=C(NC(C)=O)C(=O)c2ccccc2C1=O', 'active'),
  ('O=C(Nc1cc(Cl)cc(Cl)c1)OCCCl', 'inactive'),
  ('CCc1cccc(C(C)(C)C)c1NC(=S)N/C=C(\c1ccccc1)S(=O)Cc1ccccc1 (stereo not drawn)', 'inactive'),
  ('CCOC(=O)CCc1ccc(OC)c(OC)c1', 'inactive'),
  ('O=C1c2ccc3ccccc3c2CN2C(=O)CCC12 (stereo not drawn)', 'inactive'),
  ('OCC(CO)C1c2cccc3ccc4cccc1c4c23', 'inactive'),
  ('CN(C)C(=S)/N=c1\ss/c(=N/C(=S)N(C)C)n1-c1ccc([N+](=O)[O-])cc1', 'inactive'),
  ('CC(=O)O/C=C\COC(C)=O', 'inactive'),
  ('CCCN(CCC)C(=S)N/N=C(/C)c1ccccc1O', 'active'),
  ('C=CCOc1ccc(N=NC(C#N)C#N)cc1', 'active'),
  ('CCCCCCCNc1ccc2c(cc1=O)C(NC(C)=O)CCc1cc(OC)c(OC)c(OC)c1-2 (stereo not drawn)', 'active'),
  ('O=c1ccccc(Br)c1O', 'active'),
  ('Cc1ccc(S(=O)(=O)N(c2ccccc2-c2ccccc2)C(C)C(=O)O)cc1 (stereo not drawn)', 'active'),
  ('O=C(Nc1ccccc1-c1nn(C(=S)Nc2ccccc2)c(=S)n(C(=S)Nc2ccccc2)c1=O)C(F)(F)F', 'inactive'),
  ('CN(C)c1nc(NNS(=O)(=O)c2ccc(N)cc2)nc(N(C)C)n1', 'inactive'),
  ('Nc1nc(N)c2nc(CNc3ccc(C(=O)NC(CCC(=O)O)C(=O)O)cc3)cnc2n1 (stereo not drawn)', 'inactive'),
  ('NNc1c(Cl)c(F)c(Cl)c(F)c1Cl', 'inactive'),
  ('CC(C)C(OC(=O)c1ccc(NCc2cc(O)ccc2O)cc1)C(C)C', 'active'),
  ('CC(=O)OC12CC(C(F)(F)F)(C(F)(F)F)OC1(OC(C)=O)CC(C(F)(F)F)(C(F)(F)F)O2 (stereo not drawn)', 'inactive'),
  ('C1C2OC2C2C1C1CC2C2OC12 (stereo not drawn)', 'inactive');
